meta.source: patent US11098073B2

Each entry below carries its recorded % Confluence.
- System: MDA-231 cancer cells
- assayExplanation: Inhibition of proliferation assay: cell confluence (IncuCyte live cell imaging)
- Type: cell-based
- measurementParameters: compound tested at 10 μM, images every 3 h over 4-5 d, relative confluence normalised to time zero
Where a name gives a salt, the structure may show the parent alone.
Expressed in %, but write only the number.

Hello, I am looking for reported % Confluence with MDA-231 cancer cells for C[C@H]1c2ccc(NC(=O)CNC(=O)CCCCCCC[PH](c3ccccc3)(c3ccccc3)c3ccccc3)c(O)c2C(=O)C2=C(O)[C@]3(O)C(=O)C(C(N)=O)=C(O)[C@@H](N(C)C)[C@@H]3[C@@H](O)[C@@H]21 [Example 3, trifluoroacetate] . Could you help?
99.9

Hello, I am looking for reported % Confluence with MDA-231 cancer cells for C[C@H]1c2ccc(NC(=O)CCCCCC[P+](c3ccccc3)(c3ccccc3)c3ccccc3)c(O)c2C(=O)C2=C(O)[C@]3(O)C(=O)C(C(N)=O)=C(O)[C@@H](N(C)C)[C@@H]3[C@@H](O)[C@@H]21.[Cl-] . Could you help?
22.4
